Where do the numbers come from? From PubChem BioAssay.

Please go through the items and note down their z-score.
assay: osmotic lysis modulators in infected erythrocytes, primary screen, PSAC antagonist project, cell-based, P. falciparum Indochina, OD700, 3 h (AID 1156); conditions: higher = more signal, called active from +8 up or from −8 down
Answer with a bare number; do not write a unit.

Lookup: Please look up its z-score: "COC(=O)[C@@]1(Cc2ccccc2)[C@H]2c3cc(C(=O)N4CCCC4)n(CCSCCO)c3C[C@H]2CN1C(=O)c1ccccc1"
Found: 0.57

Lookup: Please look up its z-score: "NC(=O)[C@H]1[C@@H]2C(=O)O[C@@H](c3ccccc3)[C@@H](c3ccccc3)N2[C@@H](c2ccc(O)cc2)[C@]12C(=O)Nc1ccccc12"
Found: 0.217

Lookup: Please look up its z-score: "CCOC(=O)C[C@H]1[C@H](OC(=O)c2cc3ccccc3oc2=O)[C@@H](NC(=O)c2ccc3ccccc3c2)c2cc(OCCCO)ccc2N1C(=O)Cc1ccc(OC)cc1"
Found: 0.703

Lookup: Please look up its z-score: O=C1OCCC=C[C@H]2OC34C=CCN(c5ccc(Cl)cc5)C(=O)[C@H]3N(CCCCCCO)C(=O)[C@@H]4C12 (stereo not given in full)
Found: 1.13

Lookup: Please look up its z-score: "COc1cccc(/C=C(\C#N)C(=O)Nc2c(C)n(C)n(-c3ccccc3)c2=O)c1"
Found: 0.381
